Give In vitro activity compared with native peptide (%) vs GLP-1 (cAMP EC50) for every item shown.
- test_system: human GLP-1 receptor (human, UniProt P43220 24-463)
- assay_text: cell-based or functional assay
Bridge positions count the residues as written; N and C are the ends. Square brackets hold non-standard residues; d marks the D form. Ends that are not written are not given here. * marks the point of attachment. Acetyl(2-(4-imidazolyl)) = O=C(Cc1c[nH]cn1)*; Aib = CC(C)(N)C(=O)O
Note: unit % is implicit; provide only the numeric part.

The reported value for H[Aib]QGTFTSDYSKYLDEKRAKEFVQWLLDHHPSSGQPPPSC (bridge 16-20) [triple agonist of SEQ ID NO: 50] in terms of In vitro activity compared with native peptide (%) vs GLP-1 (cAMP EC50) is 67.4

The reported value for H[Aib]QGTFTSDCSKYLDERAAQDFVQWLLDGGPSSGAPPPS [triple agonist of SEQ ID NO: 25] in terms of In vitro activity compared with native peptide (%) vs GLP-1 (cAMP EC50) is 82.6

The reported value for H[Aib]QGTFTSDYSKYLDECRQKEFVQWLLNGGPSSGAPPPSG (bridge 16-20) [triple agonist of SEQ ID NO: 37] in terms of In vitro activity compared with native peptide (%) vs GLP-1 (cAMP EC50) is 236

The reported value for [Acetyl(2-(4-imidazolyl))][Aib]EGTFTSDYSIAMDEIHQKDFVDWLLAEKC (bridge 16-20) [triple agonist of SEQ ID NO: 91] in terms of In vitro activity compared with native peptide (%) vs GLP-1 (cAMP EC50) is 31.9

The reported value for [Acetyl(2-(4-imidazolyl))][Aib]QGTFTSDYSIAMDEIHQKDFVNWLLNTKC (bridge 16-20) [triple agonist of SEQ ID NO: 94] in terms of In vitro activity compared with native peptide (%) vs GLP-1 (cAMP EC50) is 0.5

The reported value for Y[Aib]QGTFTSDYSKYLDEKRAKEFVQWLLCHHPSSGQPPPS (bridge 16-20) [triple agonist of SEQ ID NO: 95] in terms of In vitro activity compared with native peptide (%) vs GLP-1 (cAMP EC50) is 2.1

The reported value for Y[Aib]QGTFTSDYSKYLDECRAKEFVQWLKNGGPSSGAPPPS (bridge 16-20) [triple agonist of SEQ ID NO: 24] in terms of In vitro activity compared with native peptide (%) vs GLP-1 (cAMP EC50) is 41.2

The reported value for H[Aib]QGTFTSDYSKYLDERACQDFVQWLLDQGGPSSGAPPPS [triple agonist of SEQ ID NO: 27] in terms of In vitro activity compared with native peptide (%) vs GLP-1 (cAMP EC50) is 83.1

The reported value for H[Aib]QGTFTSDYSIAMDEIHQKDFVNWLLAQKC (bridge 16-20) [triple agonist of SEQ ID NO: 33] in terms of In vitro activity compared with native peptide (%) vs GLP-1 (cAMP EC50) is 24.5

The reported value for H[Aib]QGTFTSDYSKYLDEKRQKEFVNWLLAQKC (bridge 16-20) [triple agonist of SEQ ID NO: 34] in terms of In vitro activity compared with native peptide (%) vs GLP-1 (cAMP EC50) is 19.1

The reported value for {Acetyl(2-(4-imidazolyl))}-[Aib]QGTFTSDYSIAMDEIACKDFVNWLLNTK (bridge 15-19) [triple agonist of SEQ ID NO: 61] in terms of In vitro activity compared with native peptide (%) vs GLP-1 (cAMP EC50) is 59.8

The reported value for [Acetyl(2-(4-imidazolyl))][Aib]QGTFTSDKSSYLDERAAQDFVQWLLDGGPSSGAPPPSS [triple agonist of SEQ ID NO: 38] in terms of In vitro activity compared with native peptide (%) vs GLP-1 (cAMP EC50) is 2.3

The reported value for H[Aib]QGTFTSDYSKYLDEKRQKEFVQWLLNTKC (bridge 16-20) [triple agonist of SEQ ID NO: 58] in terms of In vitro activity compared with native peptide (%) vs GLP-1 (cAMP EC50) is 39.1

The reported value for Y[Aib]QGTFTSDYSKYLDECRAKEFVQWLLAQKGKKNDWKHNIT (bridge 16-20) [triple agonist of SEQ ID NO: 23] in terms of In vitro activity compared with native peptide (%) vs GLP-1 (cAMP EC50) is 4.01

The reported value for H[Aib]QGTFTSDVSSYLLGQQQKEFIAWLVKGGGPSSGAPPPSC [triple agonist of SEQ ID NO: 5] in terms of In vitro activity compared with native peptide (%) vs GLP-1 (cAMP EC50) is 42.1

The reported value for H[Aib]QGTFTSDYSIAMDEIHQKDFVNWLLNTC (bridge 16-20) [triple agonist of SEQ ID NO: 57] in terms of In vitro activity compared with native peptide (%) vs GLP-1 (cAMP EC50) is 11.7

The reported value for {Acetyl(2-(4-imidazolyl))}-[Aib]QGTFTSDYSIAMDEKHCKDFVNWLLNTK (bridge 15-19) [triple agonist of SEQ ID NO: 60] in terms of In vitro activity compared with native peptide (%) vs GLP-1 (cAMP EC50) is 106

The reported value for [Acetyl(2-(4-imidazolyl))][Aib]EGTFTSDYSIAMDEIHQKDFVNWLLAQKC (bridge 16-20) [triple agonist of SEQ ID NO: 90] in terms of In vitro activity compared with native peptide (%) vs GLP-1 (cAMP EC50) is 7.4

The reported value for [Acetyl(2-(4-imidazolyl))][Aib]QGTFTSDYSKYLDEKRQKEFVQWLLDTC (bridge 16-20) [triple agonist of SEQ ID NO: 82] in terms of In vitro activity compared with native peptide (%) vs GLP-1 (cAMP EC50) is 9.5
